test: Displacement of [3H]flumazenil from central benzodiazepine receptor in bovine cortical membrane after 90 mins by beta liquid scintillation counting
Type: cell membranes, Bos taurus
So I've got a bunch of molecules here, and I need their pKi values.
Give bare numbers, as −log10 of the molar value.

N#Cc1ncn2c1CN=C(c1ccc(Cl)cc1)c1cc(Cl)ccc1-2: 5.78
CCOC(=O)c1ncn2c1CN=C(c1ccc(Cl)cc1)c1cc(Cl)ccc1-2: 6.63

Dear colleague, could you please provide pKi for the molecules listed below?
1. CCOC(=O)c1ncn2c1CN=C(c1ccc(F)cc1)c1cc(Cl)ccc1-2
2. CCOC(=O)c1ncn2c1CN=C(c1ccc(OC)cc1)c1cc(Cl)ccc1-2

A)
6.73
6.68

----------
test: Displacement of [3H]flumazenil from central benzodiazepine receptor in human cortical membrane after 90 mins by beta liquid scintillation counting
Format: cell membranes
measure.name: Ki (nM)
Give bare numbers, in nM.

Observe how each entry below is paired with its result.
CCOC(=O)c1ncn2c1CN=C(c1ccc(F)cc1)c1cc(F)ccc1-2: 22.3
CCOC(=O)c1ncn2c1C(C)N=C(c1ccc(F)cc1)c1cc(F)ccc1-2 (centres undefined): 550
CCOC(=O)c1ncn2c1C(C)N=C(c1ccccc1)c1ccccc1-2 (centres undefined): 750

Q) Which Ki is reported for this compound? CCOC(=O)c1ncn2c1CN=C(c1ccc(Cl)cc1)c1ccccc1-2
A) 22.5

----------
So I've got a bunch of compounds here, and I need their pKi values.
tested.system: GABA A receptor alpha-2/beta-2/gamma-2 (Homo sapiens, UniProt P18507+P47869+P47870)
Sequence (P47870 whole entry): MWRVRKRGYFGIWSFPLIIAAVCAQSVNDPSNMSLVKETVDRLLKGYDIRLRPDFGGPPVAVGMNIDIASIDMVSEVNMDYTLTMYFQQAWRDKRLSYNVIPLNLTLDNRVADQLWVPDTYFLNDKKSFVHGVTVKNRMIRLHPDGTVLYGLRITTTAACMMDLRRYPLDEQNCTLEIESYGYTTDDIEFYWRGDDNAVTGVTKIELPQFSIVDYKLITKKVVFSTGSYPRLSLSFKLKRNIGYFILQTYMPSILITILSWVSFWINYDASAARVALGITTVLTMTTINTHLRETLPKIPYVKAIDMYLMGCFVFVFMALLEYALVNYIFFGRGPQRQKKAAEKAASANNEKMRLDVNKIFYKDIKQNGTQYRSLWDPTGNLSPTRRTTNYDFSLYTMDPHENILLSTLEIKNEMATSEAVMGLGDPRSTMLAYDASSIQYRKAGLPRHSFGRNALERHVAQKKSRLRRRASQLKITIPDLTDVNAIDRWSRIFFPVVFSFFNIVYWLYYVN
Sequence (P18507 whole entry): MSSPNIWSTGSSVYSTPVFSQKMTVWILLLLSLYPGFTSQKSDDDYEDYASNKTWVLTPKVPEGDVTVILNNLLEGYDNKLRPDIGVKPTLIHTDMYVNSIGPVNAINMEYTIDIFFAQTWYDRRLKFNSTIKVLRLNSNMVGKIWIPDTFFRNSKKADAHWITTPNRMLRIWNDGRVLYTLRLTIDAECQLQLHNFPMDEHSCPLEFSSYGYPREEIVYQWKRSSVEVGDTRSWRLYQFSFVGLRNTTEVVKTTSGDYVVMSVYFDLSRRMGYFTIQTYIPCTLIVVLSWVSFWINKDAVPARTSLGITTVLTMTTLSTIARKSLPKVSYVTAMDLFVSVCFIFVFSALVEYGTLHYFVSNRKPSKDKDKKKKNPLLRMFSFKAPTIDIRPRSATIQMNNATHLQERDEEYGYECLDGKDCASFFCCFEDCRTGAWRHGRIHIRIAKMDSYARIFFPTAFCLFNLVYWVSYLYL
Sequence (P47869 whole entry): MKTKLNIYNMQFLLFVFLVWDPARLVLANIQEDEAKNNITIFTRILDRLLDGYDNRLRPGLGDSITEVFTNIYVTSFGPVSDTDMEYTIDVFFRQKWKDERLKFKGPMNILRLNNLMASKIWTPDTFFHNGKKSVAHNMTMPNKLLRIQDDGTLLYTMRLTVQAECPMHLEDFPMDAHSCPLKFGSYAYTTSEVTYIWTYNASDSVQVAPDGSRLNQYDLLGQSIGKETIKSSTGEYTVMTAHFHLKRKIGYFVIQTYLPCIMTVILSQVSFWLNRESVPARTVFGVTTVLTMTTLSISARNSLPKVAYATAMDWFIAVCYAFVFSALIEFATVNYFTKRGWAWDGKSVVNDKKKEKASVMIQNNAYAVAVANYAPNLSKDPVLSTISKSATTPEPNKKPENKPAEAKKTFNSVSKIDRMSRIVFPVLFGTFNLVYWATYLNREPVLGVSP
test: Displacement of [3H]flumazenil from human recombinant GABA-A alpha2beta2gamma2L receptor expressed in HEK293 cells
Give bare numbers, as −log10 of the molar value.

CCOC(=O)c1ncn2c1CN=C(c1ccc(F)cc1)c1cc(F)ccc1-2: 7.22

Then this compound:
Q) Which pKi is reported for this compound? CCOC(=O)c1ncn2c1CN=C(c1ccc(C)cc1)c1ccccc1-2
A) 6.98

----------
Species: Homo sapiens
test: Ratio of Ki for central benzodiazepine receptor in human cortical membrane to Ki for central benzodiazepine receptor in human cortical membrane in presence of 50 uM GABA
Format: cell membranes
Decision: Ratio Ki beneath 1 gives Fulfilled; Ratio Ki meeting or exceeding 1 gives Not fulfilled.

Examples with answers:
CCOC(=O)c1ncn2c1CN=C(c1ccc(F)cc1)c1ccccc1-2: Fulfilled
CCOC(=O)c1ncn2c1CN=C(c1ccc(C)cc1)c1ccccc1-2: Not fulfilled
CN1C(=O)CN=C(c2ccccc2F)c2cc([N+](=O)[O-])ccc21: Not fulfilled
CCOC(=O)c1ncn2c1CN=C(c1ccc(Cl)cc1)c1ccccc1-2: Fulfilled

# input for lookup
Q) I wonder whether CCOC(=O)c1ncn2c1CN=C(c1ccc(F)cc1)c1cc(F)ccc1-2 has Ratio Ki below 1. Can you tell?
A) Not fulfilled

----------
So I've got a bunch of molecules here, and I need their Ki values.
tested.system: GABA-A receptor; alpha-5/beta-3/gamma-2 (Homo sapiens, UniProt P18507+P28472+P31644)
Sequence (P18507 whole entry): as the sequence (P18507 whole entry) above
Sequence (P28472 whole entry): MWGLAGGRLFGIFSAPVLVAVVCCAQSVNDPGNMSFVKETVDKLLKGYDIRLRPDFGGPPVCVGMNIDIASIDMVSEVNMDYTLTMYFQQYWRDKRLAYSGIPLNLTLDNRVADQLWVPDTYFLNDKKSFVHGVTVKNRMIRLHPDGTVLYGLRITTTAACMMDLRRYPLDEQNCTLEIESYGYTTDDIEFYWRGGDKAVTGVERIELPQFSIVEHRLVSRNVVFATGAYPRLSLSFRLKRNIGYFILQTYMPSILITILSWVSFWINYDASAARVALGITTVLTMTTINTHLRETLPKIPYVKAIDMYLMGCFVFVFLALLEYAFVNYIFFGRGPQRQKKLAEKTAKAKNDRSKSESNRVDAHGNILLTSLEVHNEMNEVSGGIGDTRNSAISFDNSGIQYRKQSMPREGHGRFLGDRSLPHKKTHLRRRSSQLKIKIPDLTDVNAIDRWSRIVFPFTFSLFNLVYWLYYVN
Sequence (P31644 whole entry): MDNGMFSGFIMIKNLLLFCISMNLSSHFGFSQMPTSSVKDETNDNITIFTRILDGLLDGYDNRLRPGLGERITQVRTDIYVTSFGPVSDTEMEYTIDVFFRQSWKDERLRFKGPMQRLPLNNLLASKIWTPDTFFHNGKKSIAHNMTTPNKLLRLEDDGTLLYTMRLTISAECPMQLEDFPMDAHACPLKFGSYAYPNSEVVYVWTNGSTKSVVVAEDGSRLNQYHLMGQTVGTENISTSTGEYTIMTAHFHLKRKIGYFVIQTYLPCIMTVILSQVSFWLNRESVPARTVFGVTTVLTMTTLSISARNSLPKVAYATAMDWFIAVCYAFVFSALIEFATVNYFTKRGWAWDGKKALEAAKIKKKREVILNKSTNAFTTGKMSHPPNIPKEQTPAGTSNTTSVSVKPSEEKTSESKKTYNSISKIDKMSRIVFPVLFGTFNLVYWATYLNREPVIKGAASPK
test: Displacement of [3H]flumazenil from human recombinant GABA-A alpha5beta3gamma2L receptor in HEK293 cells
Assay type: cell-based
Answers are plain numbers, in nM.

CCOC(=O)c1ncn2c1CN=C(c1ccc(C)cc1)c1ccccc1-2: 908

Then this molecule:
Q) Find Ki (GABA-A receptor; alpha-5/beta-3/gamma-2 (Homo sapiens, UniProt P18507+P28472+P31644)) for the entry CCOC(=O)c1ncn2c1CN=C(c1ccc(F)cc1)c1cc(F)ccc1-2
A) 772

Origin of the recorded values: ChEMBL document CHEMBL2169854
